test.target: Btk enzyme (His-Btk) (Homo sapiens (Human))
assay: Btk enzyme activity, IMAP fluorescence polarization assay (Assay Method A)
pEC50: −log10 of the molar value. Where a name gives a salt, the structure may show the parent alone.
Measured pEC50 values are reported for all entries that follow.
reported.endpoint: pEC50

> print(dat)
                                    compound  reported.measurement
 1  Cc1ccc(NC(=O)C(=O)N2CCC[C@@H](c3nc(-c4ccc(C(=O)Nc5cc(C6CC6)ccn5)cc4)c4c(N)nccn34)C2)cc1C [Example 113]          7.00 to 8.00
 2  Nc1nccn2c([C@@H]3CCC[C@H](NC(=O)OCc4ccccc4)C3)nc(-c3ccc(C(=O)Nc4cc(C(F)(F)F)ccn4)cc3)c12 (relative stereo) [Example 154]          7.00 to 8.00
 3  N#Cc1ccnc(NC(=O)c2ccc(-c3nc(C4CCCC4)n4ccnc(N)c34)cc2)c1 [Example 44, TFA salt]                > 8.00
 4  CC1(C(=O)N2CCC[C@@H](c3nc(-c4ccc(C(=O)Nc5cc(C#N)ccn5)cc4)c4c(N)nccn34)C2)COC1 [Example 99]                > 8.00
 5  CCC(=O)N1CCC2(CC1)CC2c1nc(-c2ccc(C(=O)Nc3ccccn3)cc2)c2c(N)nccn12 (stereo not shown) [Example 153]          6.00 to 7.00
 6  Nc1nccn2c([C@@H]3CCCN(C(=O)NC45CC6CC(CC(C6)C4)C5)C3)nc(-c3ccc(C(=O)Nc4cc(C5CC5)ccn4)cc3)c12 [Example 121]          7.00 to 8.00
 7  Nc1nccn2c([C@@H]3CCCN(C(=O)C4CN(C(=O)c5ccccc5)C4)C3)nc(-c3ccc(C(=O)Nc4cc(C(F)(F)F)ccn4)cc3)c12 [Example 84]                > 8.00
 8  Nc1nccn2c(N3CCCC(C(=O)NCC4CC4)C3)nc(-c3ccc(C(=O)Nc4ccccn4)cc3)c12 (stereo not shown) [Example 225]          7.00 to 8.00
 9  COCCCNC(=O)c1cnc(N)c2c(-c3ccc(C(=O)Nc4cc(C(F)(F)F)ccn4)cc3)nc(C)n12 [Example 291]          6.00 to 7.00
10  CN(C)CCCC(=O)N1CCC[C@@H](c2nc(-c3ccc(C(=O)Nc4ccccn4)cc3)c3c(N)nccn23)C1 [Example 51]          7.00 to 8.00
11  CC1(C(=O)N2CC[C@@H](c3nc(-c4ccc(C(=O)Nc5ccccn5)cc4)c4c(N)nccn34)C2)COC1 [Example 126, TFA salt]          6.00 to 7.00
12  Cc1nc(-c2ccc(C(=O)Nc3cc(C(F)(F)F)ccn3)cc2)c2c(N)ncc(C(=O)NCc3cccnc3)n12 [Example 296]          6.00 to 7.00
13  CCNC(=O)N1CCC[C@@H](c2nc(-c3ccc(C(=O)Nc4cc(C5CC5)ccn4)cc3)c3c(N)nccn23)C1 [Example 63]                > 8.00

----------
test.target: Btk enzyme (His-Btk) (Homo sapiens (Human), UniProt Q06187)
Sequence (Q06187 whole entry): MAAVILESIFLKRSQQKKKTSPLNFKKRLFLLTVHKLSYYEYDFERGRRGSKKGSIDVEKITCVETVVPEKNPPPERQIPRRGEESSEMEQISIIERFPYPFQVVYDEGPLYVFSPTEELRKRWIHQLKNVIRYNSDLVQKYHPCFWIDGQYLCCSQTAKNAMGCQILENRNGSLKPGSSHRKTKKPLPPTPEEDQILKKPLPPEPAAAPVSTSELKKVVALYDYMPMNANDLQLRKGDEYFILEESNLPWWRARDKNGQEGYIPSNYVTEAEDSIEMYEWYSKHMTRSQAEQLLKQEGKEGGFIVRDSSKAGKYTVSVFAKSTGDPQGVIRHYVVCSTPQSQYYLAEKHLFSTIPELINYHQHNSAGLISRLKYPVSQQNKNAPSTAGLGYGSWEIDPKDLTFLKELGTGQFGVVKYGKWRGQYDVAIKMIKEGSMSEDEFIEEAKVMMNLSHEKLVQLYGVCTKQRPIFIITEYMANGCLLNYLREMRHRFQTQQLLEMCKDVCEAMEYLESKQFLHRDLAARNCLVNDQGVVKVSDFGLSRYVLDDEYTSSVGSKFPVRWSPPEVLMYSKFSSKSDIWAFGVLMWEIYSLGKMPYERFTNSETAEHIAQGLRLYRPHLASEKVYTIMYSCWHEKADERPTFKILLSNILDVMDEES
assay: Btk enzyme activity, IMAP fluorescence polarization assay (Assay Method A)
Where a name gives a salt, the structure may show the parent alone.
Listing of recorded EC50 by entry.
reported.endpoint: EC50

> print(dat)
                                   compound  reported.measurement
1  Nc1nccn2c([C@@H]3CCCN(C(=O)C(=O)c4ccco4)C3)nc(-c3ccc(C(=O)Nc4cc(C5CC5)ccn4)cc3)c12 [Example 123]          10 to 100 nM
2  CC(C)(O)CC(=O)N1CCC[C@@H](c2nc(-c3ccc(C(=O)Nc4cc(C(F)(F)F)ccn4)cc3)c3c(N)nccn23)C1 [Example 71]               < 10 nM
3  CC1CCc2nc(NC(=O)c3ccc(-c4nc([C@H]5[C@@H]6COC[C@@H]65)n5ccnc(N)c45)cc3)sc2C1 (stereo partly drawn) [Example 32, TFA salt]          10 to 100 nM
4  Nc1nccn2c([C@@H]3CCCN(C(=O)[C@H]4CC[C@H](N)CC4)C3)nc(-c3ccc(C(=O)Nc4ccccn4)cc3)c12 [Example 55, TFA salt]          10 to 100 nM
5  Cc1cc(C(=O)Nc2ccccn2)ccc1-c1nc([C@H]2CC[C@H](O)CC2)n2ccnc(N)c12 [Example 16]        100 to 1000 nM
6  Cc1nc(-c2ccc(C(=O)Nc3cc(C(F)(F)F)ccn3)cc2)c2c(N)ncc(C(=O)NC3CCN(C)CC3)n12 [Example 295]        100 to 1000 nM
